Known growth of a selection of molecules
tested on: HCT-15 colon; assay: NCI-60 one-dose screen, 48 h (100 = growth as untreated, 0 = no growth, -100 = all killed); conditions: 10 µM
The panel holds about 83,000 compounds, 20% with a hit somewhere; the sample as a whole holds those more often.
Supply the numeric figure in %, leaving out any unit text.

// growth value for CC[C@@]1(OC(=O)CN(C)C)C(=O)OCc2c1cc1n(c2=O)Cc2cc3c(N)cccc3nc2-1 : 6.43

Measured growth, S=C1SCN(CCc2ccccc2)CN1CCc1ccccc1 : 95.1

For record Cc1cc(O)c2c(c1O)C(=O)C13C(=C2O)C(=O)C2C(O)C1C1C(O)C3C(=O)C3=C(O)c4c(O)cc(C)c(O)c4C(=O)C321 (stereo unspecified) the listed growth is 16.4

Lab note: O=C1C(Cl)=C(Cl)C(Cl)(Cl)C(Cl)C1(Cl)Cl (stereo unspecified) gave growth of 91.3

// growth value for CCOC(=O)[C@]1(Br)CC[C@@]1(Br)C(=O)OCC : 89.2

Looking up NCc1c(O)ccc2ccccc12 , I found its growth recorded as 98.2

The molecule listed as N#CC(=C1C=CC(=NO)C=C1)c1ccccc1 shows growth equal to 9.7

Consider O=Nc1ccc(Nc2ccccc2)cc1 . Its measured growth is 81.2

====

test system: U251 CNS; experiment: NCI-60 one-dose screen, 48 h; conditions: 10 µM
This is part of a sample that, as a whole, favours compounds with a hit. Of some 83,000 tested, about 20% had one in any assay. The source made the active and inactive calls. The calls were made as follows: active = growth percent below 10; inactive = the rest.
Could you please pick one outcome from this set? 1 = active, 0 = inactive

# molecule, assigned.class
data = [
    ("O=C(NC(=S)Nc1ccccn1)c1ccccc1", 0),
    ("COc1ccc(N)c2c1C(=O)c1ccccc1C2=O", 0),
    ("CCOC(=O)[C@]1(Br)CC[C@@]1(Br)C(=O)OCC", 0),
]

Query string: Look up the recorded call for Cc1c(-c2ccccc2)[nH]c2ccccc12 in this test.
Result string: 0

Query string: Hi, do you know how COc1ccc(C(C#N)=C2C=CC(=NO)C=C2)cc1 came out in this test?
Result string: 0

Query string: Which result was noted for this molecule in the test: NCc1c(O)ccc2ccccc12
Result string: 0

Query string: What was the test verdict on O=C1C=CC(=O)N1c1ccc(N2C(=O)C=CC2=O)cc1 ?
Result string: 0

Query string: Please let me know the test result on file for O=C1c2cccc3cc([N+](=O)[O-])cc(c23)C(=O)N1CCN1CCCC1 .
Result string: 1

Query string: Tell me the recorded outcome of this test for CC[C@@]1(OC(=O)CN(C)C)C(=O)OCc2c1cc1n(c2=O)Cc2cc3c(N)cccc3nc2-1 .
Result string: 1

Query string: Short answer needed: outcome of this test for O=C(CNS(=O)(=O)Cc1ccccc1)NNc1ccccc1 ?
Result string: 0

====

Tested on: HS 578T breast
Assay: NCI-60 one-dose screen, 48 h (100 = growth as untreated, 0 = no growth, -100 = all killed)
Conditions: 10 µM
Description: Growth inhibition of the HS 578T human tumor cell line is measured as a screen for anti-cancer activity. Cells are grown in 96 well plates and exposed to the test compound for 48 hours. Compounds are tested at a single concentration, which is 10^-5 M for most compounds. The reported endpoint is percent growth (GI% or GIPRCNT), where numbers from 0 - 100% represent growth inhibition, and numbers from -100% - 0 represent cell death. For example, a value of 40 represents 60% growth inhibition. […]
About 83,000 compounds went through this panel and 20% of them were active in at least one assay; those are over-represented in the sample as a whole.
Catalogue of growth readings, one per entry.
Kindly provide the numeric value in % only, without the unit symbol.

# molecule, growth / %
data = [
    ("NCc1c(O)ccc2ccccc12", 94.5),
    ("Cn1ncc2cc3c(Nc4ccc(Cl)cc4)cccc3nc21", 89),
    ("O=[N+]([O-])c1cc(S(=O)(=O)Nc2ccccc2)ccc1Cl", 101),
    ("Cc1cc(C)c(N2C(=O)CC(Sc3ccccc3N)C2=O)c(C)c1 (stereo unspecified)", 81),
    ("C=C1N(C)c2ccc(Cl)cc2C1(C)C", 49.8),
    ("Cc1cc(Cl)ccc1NC(=O)/C(Cl)=C1/Sc2ccccc2NC1=O", 122),
    ("S=C1SCN(CCc2ccccc2)CN1CCc1ccccc1", 105),
    ("O=C(O)c1ccccc1.[Ag]", 114),
    ("N#CC(=C1C=CC(=NO)C=C1)c1ccccc1", -18.3),
    ("CCC(C)(c1ccc(O)c(C)c1)c1ccc(O)c(C)c1", 95),
]

Field growth (entry COc1cc(N)ccc1Nc1c2ccccc2nc2ccccc12 ) reads 102

According to the records, this molecule Cc1c(-c2ccccc2)[nH]c2ccccc12 displays growth of 102

# molecule O=C1c2cccc3cc([N+](=O)[O-])cc(c23)C(=O)N1CCN1CCCC1 ; its growth = -25.4

Measured growth of COc1ccc2oc(-c3ccc(Cl)cc3)c(N3CCN(C)CC3)c2c1 : 28.3

growth reading for O=C(NC(=S)Nc1ccccn1)c1ccccc1 : 88.8

Measured growth of CN(C)c1ccc(/C=C/c2ccnc3ccccc23)cc1N : 80.2

Lab note: measured growth of CCC(=O)Oc1ccc(/C=N/NC(N)=S)nc1 was 117

Given item COc1ccc(N)c2c1C(=O)c1ccccc1C2=O , the value recorded as its growth is 107

====

tested on: SF-295 CNS; experiment: NCI-60 one-dose screen, 48 h; conditions: 10 µM
About 83,000 compounds went through this panel and 20% of them were active in at least one assay; those are over-represented in the sample as a whole. Active and inactive are the calls of the source. Rule for the calls: active = growth percent below 10; inactive = the rest.
Lab note: assign the record to one of active, inactive

Record excerpt, results attached:
# molecule, assigned.class
data = [
    ("CCOC(=O)[C@]1(Br)CC[C@@]1(Br)C(=O)OCC", "inactive"),
    ("Cc1cc(Cl)ccc1NC(=O)/C(Cl)=C1/Sc2ccccc2NC1=O", "inactive"),
    ("Cc1cc(O)c2c(c1O)C(=O)C13C(=C2O)C(=O)C2C(O)C1C1C(O)C3C(=O)C3=C(O)c4c(O)cc(C)c(O)c4C(=O)C321 (stereo not drawn)", "active"),
    ("COc1cccc(C(c2cc3c(cc2O)OCO3)N2CCOCC2)c1OC (stereo not drawn)", "inactive"),
    ("COc1ccc(N)c2c1C(=O)c1ccccc1C2=O", "inactive"),
]

Query string: Record lookup: outcome of this test for N#C/C(=C/N1C(=O)/C(=C/c2ccc([N+](=O)[O-])cc2)SC1=S)c1nc2ccccc2s1 ?
Result string: inactive

Query string: Could you kindly confirm the outcome this assay logged for CC1CCC2(C(=O)O)CCC3(C)C(=CCC4C5(C)CC(O)C(O)C(C)(CO)C5C(O)CC43C)C2C1C (stereo not drawn) ?
Result string: inactive

Query string: # outcome recorded in this test, key = O=[N+]([O-])c1cc(S(=O)(=O)Nc2ccccc2)ccc1Cl
Result string: inactive

====

test system: UO-31 renal; assay: NCI-60 one-dose screen, 48 h; details: 10 µM
About 83,000 compounds went through this panel and 20% of them were active in at least one assay; those are over-represented in the sample as a whole. Calls of active or inactive are those of the source. The calls were made as follows: active = growth percent below 10; inactive = the rest.
Reply using exactly one outcome from YES (active), NO (inactive)

Some entries whose results are on file:
# compound, measured.target, assigned.class
records = [
    ("CC1CCC2(C(=O)O)CCC3(C)C(=CCC4C5(C)CC(O)C(O)C(C)(CO)C5C(O)CC43C)C2C1C (stereo unspecified)", "UO-31 renal", "NO"),
    ("CC[C@@]1(OC(=O)CN(C)C)C(=O)OCc2c1cc1n(c2=O)Cc2cc3c(N)cccc3nc2-1", "UO-31 renal", "YES"),
    ("O=S(=O)(c1cc(Cl)ccc1O)c1cc(Cl)ccc1O", "UO-31 renal", "NO"),
    ("COc1ccc(C(C#N)=C2C=CC(=NO)C=C2)cc1", "UO-31 renal", "NO"),
    ("O=C(O)c1ccccc1.[Ag]", "UO-31 renal", "NO"),
]

Turning now to a further record.
Query string: How did this test come out for CN(CC(=O)O)c1ccc(/C=C/c2ccnc3ccccc23)cc1 ?
Result string: NO

====

system: SR leukemia; assay: NCI-60 one-dose screen, 48 h (100 = growth as untreated, 0 = no growth, -100 = all killed); conditions: 10 µM
The panel holds about 83,000 compounds, 20% with a hit somewhere; the sample as a whole holds those more often.
readout: growth (%)
Give a bare numeral; the unit % is implied.

# count of solved cases: 4
# compound, recorded.number
records = [
    ("CCC(C)(c1ccc(O)c(C)c1)c1ccc(O)c(C)c1", 113),
    ("O=C(NC(=S)Nc1ccccn1)c1ccccc1", 112),
    ("CC[C@@]1(OC(=O)CN(C)C)C(=O)OCc2c1cc1n(c2=O)Cc2cc3c(N)cccc3nc2-1", -3.07),
    ("Cc1cc(O)c2c(c1O)C(=O)C13C(=C2O)C(=O)C2C(O)C1C1C(O)C3C(=O)C3=C(O)c4c(O)cc(C)c(O)c4C(=O)C321 (stereo not given)", 12.6),
]

// switching to the query compound
Recorded result, Cc1c(-c2ccccc2)[nH]c2ccccc12 , growth: 102
